B1: Azoarcus group I ribozyme (parent)
chain: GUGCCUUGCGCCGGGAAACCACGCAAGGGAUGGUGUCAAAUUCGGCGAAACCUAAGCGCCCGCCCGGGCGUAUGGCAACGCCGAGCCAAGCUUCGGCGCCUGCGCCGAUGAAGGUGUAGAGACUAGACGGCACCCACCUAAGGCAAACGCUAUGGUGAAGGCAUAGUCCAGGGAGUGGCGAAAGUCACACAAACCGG

- Variants of: B1
- Procedure Text: reverse-splicing fitness (ratio to wild type); higher = more active; in vitro selection; Mg2+ level not given
In this section, each of the variants is paired with its reported reverse-splicing fitness.
Lab note: record the figure alone, no unit after it.

C82U C169G U176G : 0.00406

Shifting focus to the variant that follows.
Query: reverse-splicing fitness; subject: C82A A111C A120C C169U U176C
0.0149
